Reference source: ChEMBL document CHEMBL1154397

microsomal CLint values for the compounds below.
tested on: Liver microsomes; test: Metabolic stability in human liver microsomes assessed as clearance; assay type: ADME, Microsome
Numbers only; they are read as µL/min/mg.

# count of solved cases: 4
CS(=O)(=O)N[C@H]1CC[C@H](c2n[nH]cc2-c2ccnc(NC3CCCC3)n2)CC1 : 11
CN1CCC(Nc2nccc(-c3c[nH]nc3-c3ccc(Cl)cc3)n2)CC1 : 14
Clc1ccc(-c2n[nH]cc2-c2ccnc(NC3CC3)n2)cc1 : 96
CC(C)Nc1nccc(-c2c[nH]nc2-c2ccc(Cl)cc2)n1 : 106

Here is another compound to look at.
[in] Any idea what microsomal CLint came out for OC1CCCC(c2n[nH]cc2-c2ccnc(NC3CCCC3)n2)C1 (stereo not given) on Liver microsomes?
[out] 15
